Tested on: Rattus norvegicus
assay.explanation: Effect on adrenal weight in rat 13762 cells allografted Fischer 344 rat at 100 mg/kg, ip qd for 20 days relative to control
Type: functional
study.conditions: route intraperitoneal
Quick reference: Activity of the listed items.
Number only, in %; omit the unit.

For orientation, consider the following solved cases.
Asked: Query (compound): CC(=O)O[C@H]1CC[C@H]2[C@@H]3[C@@H](C)C[C@H]4CSC[C@]4(C)[C@H]3CC[C@]12C ; field requested: Activity
Given back: 87

Asked: Query (compound): CC(=O)O[C@H]1CC[C@H]2[C@@H]3CCC4=CC(=O)CC[C@]4(C)[C@H]3CC[C@]12C ; field requested: Activity
Given back: 88

Asked: Query (compound): C[C@H]1CC2=CC(=O)CC[C@]2(C)[C@H]2CC[C@@]3(C)[C@@H](CC[C@]3(C)O)[C@H]12 ; field requested: Activity
Given back: 73

Asked: Query (compound): CC(=O)O[C@H]1CC[C@H]2[C@@H]3[C@@H](C)C[C@H]4CC(=O)CC[C@]4(C)[C@H]3CC[C@]12C ; field requested: Activity
Given back: 68

// next item, Activity requested
Asked: Query (compound): C[C@H]1CC2=CC(=O)CC[C@]2(C)[C@H]2CC[C@]3(C)[C@@H](O)CC[C@H]3[C@H]12 ; field requested: Activity
Given back: 70

* * *

Quick reference: Ratio of the listed items.
Tested on: Rattus norvegicus
assay.explanation: Toxicity in rat 13762 cells allografted in Fischer 344 rat assessed as ratio of final body weight to initial body weight at 100 mg/kg, ip qd for 20 days
Format: organism-based
Parameters: dose 100 mg/kg, route intraperitoneal
study.conditions: in vivo, 480 h
The response must contain the number and no unit.

For orientation, consider the following solved cases.
Asked: Reported Ratio for Rattus norvegicus, given CC(=O)O[C@H]1CC[C@H]2[C@@H]3[C@@H](C)C[C@H]4CC(=O)CC[C@]4(C)[C@H]3CC[C@]12C ?
Given back: 1.81

Asked: Reported Ratio for Rattus norvegicus, given C[C@H]1CC2=CC(=O)CC[C@]2(C)[C@H]2CC[C@@]3(C)[C@@H](CC[C@]3(C)O)[C@H]12 [CALUSTERONE] ?
Given back: 1.64

Asked: Reported Ratio for Rattus norvegicus, given CC(=O)O[C@H]1CC[C@H]2[C@@H]3CCC4=CC(=O)CC[C@]4(C)[C@H]3CC[C@]12C ?
Given back: 1.68

Asked: Reported Ratio for Rattus norvegicus, given CC(=O)O[C@H]1CC[C@H]2[C@@H]3[C@@H](C)C[C@H]4CSC[C@]4(C)[C@H]3CC[C@]12C ?
Given back: 1.55

// next item, Ratio requested
Asked: Reported Ratio for Rattus norvegicus, given C[C@H]1CC2=CC(=O)CC[C@]2(C)[C@H]2CC[C@]3(C)[C@@H](O)CC[C@H]3[C@H]12 ?
Given back: 1.58

* * *

Tested on: Rattus norvegicus
assay.explanation: Effect on pituitary weight in rat 13762 cells allografted Fischer 344 rat at 100 mg/kg, ip qd for 20 days relative to control
Type: functional, Pituitary gland cell
study.conditions: route intraperitoneal
observed.property: Activity
The answer should read as a number with its unit following.

Asked: Query (compound): CC(=O)O[C@H]1CC[C@H]2[C@@H]3[C@@H](C)C[C@H]4CSC[C@]4(C)[C@H]3CC[C@]12C ; field requested: Activity
Given back: 90%

Asked: Query (compound): CC(=O)O[C@H]1CC[C@H]2[C@@H]3[C@@H](C)C[C@H]4CC(=O)CC[C@]4(C)[C@H]3CC[C@]12C ; field requested: Activity
Given back: 56%

---
Asked: Query (compound): C[C@H]1CC2=CC(=O)CC[C@]2(C)[C@H]2CC[C@@]3(C)[C@@H](CC[C@]3(C)O)[C@H]12 ; field requested: Activity
Given back: 80%

Asked: Query (compound): CC(=O)O[C@H]1CC[C@H]2[C@@H]3CCC4=CC(=O)CC[C@]4(C)[C@H]3CC[C@]12C ; field requested: Activity
Given back: 71%

Asked: Query (compound): C[C@H]1CC2=CC(=O)CC[C@]2(C)[C@H]2CC[C@]3(C)[C@@H](O)CC[C@H]3[C@H]12 ; field requested: Activity
Given back: 73%

* * *

Tested on: Rattus norvegicus
assay.explanation: Myotrophic activity in castrate rat assessed as levator ani weight at 3 mg, sc qd for 7 days by autopsy analysis (reference value: 23.6 +/- 1.08 mg)
Format: functional
observed.property: Activity (mg)
Number only, in mg; omit the unit.

Asked: Query (compound): CC(=O)O[C@H]1CC[C@H]2[C@@H]3CC[C@H]4CSC[C@]4(C)[C@H]3CC[C@]12C ; field requested: Activity
Given back: 65.2

---
Asked: Query (compound): CC(=O)O[C@H]1CC[C@H]2[C@@H]3[C@@H](C)C[C@H]4CSC[C@]4(C)[C@H]3CC[C@]12C ; field requested: Activity
Given back: 25.7

Asked: Query (compound): CCC(=O)O[C@H]1CC[C@H]2[C@@H]3CCC4=CC(=O)CC[C@]4(C)[C@H]3CC[C@]12C [TESTOSTERONE PROPIONATE] ; field requested: Activity
Given back: 68.2

Asked: Query (compound): CC(=O)O[C@H]1CC[C@H]2[C@@H]3[C@@H](C)C[C@H]4CC(=O)CC[C@]4(C)[C@H]3CC[C@]12C ; field requested: Activity
Given back: 63.3

* * *

Quick reference: Activity of the listed items.
Test system: 13762
assay.explanation: Antitumor activity against rat 13762 cells allografted in Fischer 344 rat assessed as tumor weight at 100 mg/kg, ip qd for 20 days relative to control
Format: functional
study.conditions: route intraperitoneal
Number only, in %; omit the unit.

Asked: Query (compound): C[C@H]1CC2=CC(=O)CC[C@]2(C)[C@H]2CC[C@]3(C)[C@@H](O)CC[C@H]3[C@H]12 ; field requested: Activity
Given back: 103

Asked: Query (compound): CC(=O)O[C@H]1CC[C@H]2[C@@H]3[C@@H](C)C[C@H]4CSC[C@]4(C)[C@H]3CC[C@]12C ; field requested: Activity
Given back: 133

* * *

Quick reference: Activity of the listed items.
Test system: 13762
assay.explanation: Antitumor activity against rat 13762 cells allografted in Fischer 344 rat assessed as tumor weight at 100 mg/kg, ip qd for 20 days relative to control
Format: functional
study.conditions: route intraperitoneal
The answer should read as a number with its unit following.

For orientation, consider the following solved cases.
Asked: Query (molecule): CC(=O)O[C@H]1CC[C@H]2[C@@H]3CCC4=CC(=O)CC[C@]4(C)[C@H]3CC[C@]12C ; field requested: Activity
Given back: 123%

Asked: Query (molecule): CC(=O)O[C@H]1CC[C@H]2[C@@H]3[C@@H](C)C[C@H]4CC(=O)CC[C@]4(C)[C@H]3CC[C@]12C ; field requested: Activity
Given back: 132%

// next item, Activity requested
Asked: Query (molecule): C[C@H]1CC2=CC(=O)CC[C@]2(C)[C@H]2CC[C@@]3(C)[C@@H](CC[C@]3(C)O)[C@H]12 [CALUSTERONE] ; field requested: Activity
Given back: 123%
